Reference for the values: BigSolDB 2.1

Conditions: in n-butanol, 278.15 K
READOUT NAME: solubility (mole fraction)

Task item: Tell me the measured solubility (mole fraction) of "Cn1cc[nH]c1=S" , please.
Reply: 0.0194

----------
Conditions: in isobutanol, 308.15 K
READOUT NAME: solubility (mole fraction)

Task item: Tell me the measured solubility (mole fraction) of "Cn1cc[nH]c1=S" , please.
Reply: 0.0656

----------
Details: in ethanol, 283.15 K
READOUT NAME: solubility (mole fraction)
API note: the answer field is a bare number with no unit suffix.

Task item: Tell me the measured solubility (mole fraction) of "Cn1cc[nH]c1=S" , please.
Reply: 0.0335
